# system_tested: T1, human prolactin receptor (PRLR) on cells (human, UniProt P16471 25-622)
# T1 construct: T47D, T47D#11 and MCF7 carry the endogenous receptor; also called hPRLR; HEK293/hPRLR
# T1 sequence: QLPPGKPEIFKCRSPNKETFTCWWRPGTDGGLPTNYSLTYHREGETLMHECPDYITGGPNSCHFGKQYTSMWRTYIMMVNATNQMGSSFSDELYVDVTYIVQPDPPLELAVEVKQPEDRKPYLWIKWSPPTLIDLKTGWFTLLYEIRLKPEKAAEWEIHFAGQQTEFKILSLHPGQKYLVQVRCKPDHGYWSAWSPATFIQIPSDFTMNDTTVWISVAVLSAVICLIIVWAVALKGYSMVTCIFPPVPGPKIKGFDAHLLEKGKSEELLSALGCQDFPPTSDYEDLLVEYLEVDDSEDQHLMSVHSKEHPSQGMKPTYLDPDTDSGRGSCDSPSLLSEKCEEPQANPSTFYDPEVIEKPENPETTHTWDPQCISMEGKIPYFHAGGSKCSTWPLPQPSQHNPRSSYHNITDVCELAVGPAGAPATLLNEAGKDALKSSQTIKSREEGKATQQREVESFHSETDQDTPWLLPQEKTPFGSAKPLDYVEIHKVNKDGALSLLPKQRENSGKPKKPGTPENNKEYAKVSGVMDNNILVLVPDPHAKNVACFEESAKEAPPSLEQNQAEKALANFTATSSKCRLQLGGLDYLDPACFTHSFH
# protocol_description: FACS, HEK293/hPRLR cells; further: test concentration or dose not given here
Overview of reported FACS Cell Binding (Fold Above Background) across a group of binders:
Kindly answer with a numeric value in fold above background, unit omitted.

binder	reported_result
H1H6801P (antibody, human IgG1, V domains shown, human IgG1 Fc (H1H)) VH: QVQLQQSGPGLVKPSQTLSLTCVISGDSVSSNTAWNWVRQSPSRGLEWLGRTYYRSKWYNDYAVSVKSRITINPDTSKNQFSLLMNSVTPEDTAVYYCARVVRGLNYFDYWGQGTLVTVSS VL: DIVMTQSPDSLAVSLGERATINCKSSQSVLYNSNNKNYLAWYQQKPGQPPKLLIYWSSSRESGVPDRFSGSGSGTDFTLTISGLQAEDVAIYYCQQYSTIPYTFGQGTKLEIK	47
H1H6953N (antibody, human IgG1, V domains shown, also called H1M6953N) VH: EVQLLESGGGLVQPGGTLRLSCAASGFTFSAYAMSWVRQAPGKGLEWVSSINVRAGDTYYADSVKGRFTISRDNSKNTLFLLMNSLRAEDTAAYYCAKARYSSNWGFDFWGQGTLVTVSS VL: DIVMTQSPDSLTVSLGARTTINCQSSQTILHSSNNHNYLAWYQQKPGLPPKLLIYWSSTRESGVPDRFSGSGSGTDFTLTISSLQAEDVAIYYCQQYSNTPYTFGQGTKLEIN	37
H1H6774P (antibody, human IgG1, V domains shown, human IgG1 Fc (H1H)) VH: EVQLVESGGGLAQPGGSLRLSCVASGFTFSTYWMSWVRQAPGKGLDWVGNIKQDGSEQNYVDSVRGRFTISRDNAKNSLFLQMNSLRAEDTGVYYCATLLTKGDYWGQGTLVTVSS VL: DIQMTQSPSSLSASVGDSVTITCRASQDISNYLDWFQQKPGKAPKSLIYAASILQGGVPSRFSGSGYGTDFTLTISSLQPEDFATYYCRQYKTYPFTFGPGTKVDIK	1
H1H6804P (antibody, human IgG1, V domains shown, human IgG1 Fc (H1H)) VH: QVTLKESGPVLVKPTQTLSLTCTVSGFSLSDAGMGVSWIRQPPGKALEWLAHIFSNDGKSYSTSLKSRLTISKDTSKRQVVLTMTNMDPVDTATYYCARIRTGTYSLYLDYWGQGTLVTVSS VL: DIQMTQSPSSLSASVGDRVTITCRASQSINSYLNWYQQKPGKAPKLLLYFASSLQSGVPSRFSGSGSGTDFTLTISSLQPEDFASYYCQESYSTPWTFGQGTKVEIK	1

We next turn to a different binder, shown below.
The binder identified as H1H6795P (antibody, human IgG1, V domains shown, human IgG1 Fc (H1H)) VH: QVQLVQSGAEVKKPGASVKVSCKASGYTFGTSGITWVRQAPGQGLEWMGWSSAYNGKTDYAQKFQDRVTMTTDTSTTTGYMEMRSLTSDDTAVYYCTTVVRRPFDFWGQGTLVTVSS VL: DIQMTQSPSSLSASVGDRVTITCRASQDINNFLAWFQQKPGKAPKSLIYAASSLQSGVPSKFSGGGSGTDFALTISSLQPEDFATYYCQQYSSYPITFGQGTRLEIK registered its FACS Cell Binding (Fold Above Background) at 1

Data provenance is patent US20150056222A1.
